# Read-out: Interferon-gamma inducible Protein 10 (IP10), CXCL10 (gene 3627)
# protocolDetails: BSK_KF3CT_IP10: BioMAP Diversity Plus: KF3CT Assay for Interferon-gamma inducible Protein 10 (IP10) Biomarker Activity (AID 2283068)
# measurementContext: primary human keratinocytes with fibroblasts; actives raise or lower the signal
Active and inactive are the calls of the source. The calls were made as follows: active = hit-call score of the fitted dose curve at least 0.9, where 1 is the maximum; inactive = score below 0.9.
Outcome codes: yes = active, no = inactive

{"columns": ["lineNotation", "cat"],
 "data": [
  ["Cc1oc(-c2ccccc2)nc1CCOc1ccc(C[C@H](Nc2ccccc2C(=O)c2ccccc2)C(=O)O)cc1", "yes"],
  ["CCCOC(=O)c1ccc(O)cc1", "no"],
  ["CN1CCN(c2ccccc2/C=C2\\SCCN(c3ccc(Cl)c(Cl)c3)C2=O)CC1", "yes"],
  ["CC(=O)NC1(c2cccc(F)c2)CCN(CC[C@@]2(c3ccc(Cl)c(Cl)c3)CN(c3ccccc3)C(=O)CO2)CC1", "yes"],
  ["NC(=O)N(O)[C@@H]1C=C[C@H](Oc2cccc(Oc3ccc(F)cc3)c2)C1", "yes"],
  ["CCN(CC)CCNc1ccc(CNC=O)c2sc3ccc(OC)cc3c(=O)c12", "yes"],
  ["O=c1c(-c2ccc(O)cc2)coc2cc(O)ccc12", "no"],
  ["CC(C)(C)c1cccc(C(C)(C)C)c1O", "yes"],
  ["CCCCCCCCOC(=O)CCCCCCCCC(=O)OCCCCCCCC", "no"],
  ["C=C(C)C(=O)OCCC(F)(F)C(F)(F)C(F)(F)C(F)(F)C(F)(F)C(F)(F)F", "no"]
]}
